tested on: CCRF-CEM leukemia; test: NCI-60 one-dose screen, 48 h (100 = growth as untreated, 0 = no growth, -100 = all killed); conditions: 10 µM unless noted
The panel holds about 83,000 compounds, 20% with a hit somewhere; the sample as a whole holds those more often.
# growth per entry
Report as a plain number; the unit % is understood.

- COMPOUND STRUCTURE: "O=C(CN1CCN(c2cc3c(cc2F)c(=O)c(C(=O)O)cn3C2CC2)CC1)N/N=C/c1ccco1"
  growth, %: 107
- COMPOUND STRUCTURE: "CCOC(=O)C(=Cc1ccc(-c2ccccc2)cc1)C(=O)OCC"
  growth, %: 1.19
- COMPOUND STRUCTURE: "Cc1ccc(CNc2c3ccccc3nc3ccccc23)cc1"
  growth, %: 20.9

What measured growth is associated with Ic1ccccc1I on CCRF-CEM leukemia?
42.6

What measured growth is associated with Cc1ccc2nc(NC(=O)CSc3nc(-c4ccccc4)c(C#N)c4nnnn34)sc2c1 on CCRF-CEM leukemia?
106

What measured growth is associated with COc1cccc(/C=N/NC(=O)c2ccccc2N2CCCC2)c1O on CCRF-CEM leukemia?
-14

----------
# growth per entry
System: IGROV1 ovarian
Test: NCI-60 one-dose screen, 48 h (100 = growth as untreated, 0 = no growth, -100 = all killed)
Details: 10 µM unless noted
Description: Growth inhibition of the IGROV1 human tumor cell line is measured as a screen for anti-cancer activity. Cells are grown in 96 well plates and exposed to the test compound for 48 hours. Compounds are tested at a single concentration, which is 10^-5 M for most compounds. The reported endpoint is percent growth (GI% or GIPRCNT), where numbers from 0 - 100% represent growth inhibition, and numbers from -100% - 0 represent cell death. For example, a value of 40 represents 60% growth inhibition. […]
The panel holds about 83,000 compounds, 20% with a hit somewhere; the sample as a whole holds those more often.
Report as a plain number; the unit % is understood.

Check out these entries, answers already filled in.
- COMPOUND: "CCC1S/C(=N\\N=C(\\C)c2cc3cc(Cl)ccc3o2)N(c2ccccc2)C1=O (configuration not stated)"
  TEST VALUE: 671
- COMPOUND: "OCCNCCNC(Cc1ccc(Cl)cc1)c1ccccc1 (configuration not stated)"
  TEST VALUE: 87.3
- COMPOUND: "CCCCNC(=O)c1cc([N+](=O)[O-])cc(C2CCCCC2)c1O"
  TEST VALUE: 43.2
- COMPOUND: "COc1cccc(CNc2c3ccccc3nc3ccccc23)c1"
  TEST VALUE: 28.3
- COMPOUND: "N#C/C(=C\\c1cn(Cc2ccccc2)c2ccccc12)C(=O)Nc1ncc(Cc2ccccc2Cl)s1"
  TEST VALUE: 9.54
- COMPOUND: "S=c1[nH]c(=S)c2c(-c3ccccc3)c(-c3ccccc3)oc2[nH]1"
  TEST VALUE: 99.6
- COMPOUND: "N#Cc1cccc(C2C3=C(COC3=O)N(CCO)c3cc4c(cc32)OCO4)c1 (configuration not stated)"
  TEST VALUE: 42.1
- COMPOUND: "c1ccc(CCNc2c3ccccc3nc3ccccc23)cc1"
  TEST VALUE: 28
- COMPOUND: "Cc1c2cccnc2c(C)c2c1c1cc(CO)ccc1n2C"
  TEST VALUE: 4.27
- COMPOUND: "CCN1CCN(CCNc2nccc(-c3c(-c4ccc(F)c(OC)c4)nc4sccn34)n2)S1(=O)=O"
  TEST VALUE: 74.4

Please find the next compound below.
What measured growth is associated with C=C1CC[C@@H]2C(C)(C)[C@@H](O)CC[C@@]2(C)[C@@H]1COc1ccc2ccc(=O)oc2c1 on IGROV1 ovarian?
95.3
